target: Protein kinase C beta type (Homo sapiens, UniProt P05771); assay: Inhibition of PKC beta1 (unknown origin)
Sequence (P05771 whole entry): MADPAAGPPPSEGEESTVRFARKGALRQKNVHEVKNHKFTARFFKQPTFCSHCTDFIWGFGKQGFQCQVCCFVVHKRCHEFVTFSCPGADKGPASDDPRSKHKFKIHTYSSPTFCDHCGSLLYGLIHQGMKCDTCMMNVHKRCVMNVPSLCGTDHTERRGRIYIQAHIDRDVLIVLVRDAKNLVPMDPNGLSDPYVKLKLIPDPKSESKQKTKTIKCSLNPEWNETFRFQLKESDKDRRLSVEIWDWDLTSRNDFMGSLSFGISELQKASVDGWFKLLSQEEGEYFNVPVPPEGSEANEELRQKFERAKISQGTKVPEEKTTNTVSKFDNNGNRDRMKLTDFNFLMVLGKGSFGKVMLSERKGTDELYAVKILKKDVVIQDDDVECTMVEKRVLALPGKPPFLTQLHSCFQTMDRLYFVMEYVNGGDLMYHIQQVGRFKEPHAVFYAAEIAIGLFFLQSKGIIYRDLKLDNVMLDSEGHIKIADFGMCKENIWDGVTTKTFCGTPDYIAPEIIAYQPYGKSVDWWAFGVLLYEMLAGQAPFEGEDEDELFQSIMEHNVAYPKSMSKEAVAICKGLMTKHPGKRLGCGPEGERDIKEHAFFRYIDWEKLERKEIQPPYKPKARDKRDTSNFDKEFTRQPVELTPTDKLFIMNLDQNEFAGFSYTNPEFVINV
pKi: −log10 of the molar value.
REPORTED PROPERTY: pKi

smiles_structure=CC(C)[C@@](C)(O)[C@@H]1CN(c2nc(-c3n[nH]c4ncccc34)c(F)cc2Cl)CCN1 reported_property=pKi value_reported=7.82

---

The next entries give measured Ki for UniProtKB P17252.
REPORTED PROPERTY: Ki (nM)

smiles_structure=CC(C)[C@@](C)(O)[C@@H]1CN(c2nc(-c3n[nH]c4ncccc34)c(F)cc2F)CCN1 display_unit=nM result_qualifier== value_reported=198
smiles_structure=CC(C)[C@@](C)(O)[C@@H]1CN(c2nc(-c3n[nH]c4ncccc34)c(F)cc2Cl)CCN1 display_unit=nM result_qualifier== value_reported=356
smiles_structure=CC(C)[C@@](C)(O)[C@@H]1CN(c2ccc(Cl)c(-c3n[nH]c4ncccc34)n2)CCN1 display_unit=nM result_qualifier== value_reported=1240
smiles_structure=CC(C)[C@@](C)(O)[C@@H]1CN(c2nc(-c3n[nH]c4ncccc34)c(F)cc2CO)CCN1 display_unit=nM result_qualifier== value_reported=205
smiles_structure=Fc1ccc(N2CCNCC2)nc1-c1n[nH]c2ncccc12 display_unit=nM result_qualifier=> value_reported=1250

---

molecular target: Protein kinase C theta type (Homo sapiens); test: Inhibition of full-length recombinant PKC theta (unknown origin) using ERMRPRKRQGSVRRRV as substrate after 60 mins by scintillation counting analysis in presence of [gamma-33P]ATP
Sequence (Q04759 whole entry): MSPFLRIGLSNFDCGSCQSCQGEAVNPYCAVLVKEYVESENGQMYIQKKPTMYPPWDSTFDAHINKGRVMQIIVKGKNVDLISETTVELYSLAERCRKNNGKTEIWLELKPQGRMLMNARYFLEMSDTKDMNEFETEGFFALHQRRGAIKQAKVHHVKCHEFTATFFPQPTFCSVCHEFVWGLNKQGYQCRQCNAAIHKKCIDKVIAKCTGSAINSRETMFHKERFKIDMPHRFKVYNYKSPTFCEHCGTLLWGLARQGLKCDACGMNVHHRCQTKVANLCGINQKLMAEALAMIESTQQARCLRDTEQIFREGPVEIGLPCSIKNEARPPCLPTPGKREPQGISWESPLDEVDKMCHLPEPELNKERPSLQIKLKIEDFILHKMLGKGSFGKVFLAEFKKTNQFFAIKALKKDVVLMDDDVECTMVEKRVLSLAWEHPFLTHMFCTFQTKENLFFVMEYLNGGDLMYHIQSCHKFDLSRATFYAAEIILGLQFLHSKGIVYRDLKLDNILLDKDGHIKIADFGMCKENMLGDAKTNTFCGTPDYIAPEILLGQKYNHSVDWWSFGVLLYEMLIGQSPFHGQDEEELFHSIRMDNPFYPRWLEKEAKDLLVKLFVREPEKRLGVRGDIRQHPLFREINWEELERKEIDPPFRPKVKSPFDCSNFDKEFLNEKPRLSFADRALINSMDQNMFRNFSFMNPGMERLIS
pKi: −log10 of the molar value.
Below: a set of entries, each annotated with reported pKi.
REPORTED PROPERTY: pKi

compound=CC(C)[C@@](C)(O)[C@@H]1CN(c2nc(-c3n[nH]c4ncccc34)c(F)cc2CO)CCN1 result_qualifier== value_reported=10.00
compound=CC(C)C[C@H]1CN(c2ccc(F)c(-c3n[nH]c4ncccc34)n2)C[C@@H](C)N1 result_qualifier== value_reported=8.30
compound=CC(C)[C@@](C)(O)[C@@H]1CN(c2nc(-c3n[nH]c4ncccc34)c(F)cc2O)CCN1 result_qualifier== value_reported=10.00
compound=CC(C)[C@@](C)(O)[C@@H]1CN(c2nc(-c3n[nH]c4ncccc34)c(F)cc2Cl)CCN1 result_qualifier== value_reported=10.10
compound=CC(C)C[C@H]1CN(c2ccc(F)c(-c3n[nH]c4ncccc34)n2)C[C@H](C)N1 result_qualifier=< value_reported=6.15
compound=CC(C)[C@@](C)(O)[C@@H]1CN(c2nc(-c3n[nH]c4ncccc34)c(F)cc2F)CCN1 result_qualifier== value_reported=10.00
compound=CC(C)[C@@](C)(O)[C@@H]1CN(c2ccc(Cl)c(-c3n[nH]c4ncccc34)n2)CCN1 result_qualifier== value_reported=7.68
compound=Fc1ccc(N2CCNCC2)nc1-c1n[nH]c2ncccc12 result_qualifier== value_reported=7.22
compound="CC(C)[C@@](C)(O)[C@@H]1CN(c2ccc(C(F)(F)F)c(-c3n[nH]c4ncccc34)n2)CCN1 (racemic)" result_qualifier== value_reported=7.70

---

target: Tyrosine-protein kinase Lck (Homo sapiens)
Sequence (P06239 whole entry): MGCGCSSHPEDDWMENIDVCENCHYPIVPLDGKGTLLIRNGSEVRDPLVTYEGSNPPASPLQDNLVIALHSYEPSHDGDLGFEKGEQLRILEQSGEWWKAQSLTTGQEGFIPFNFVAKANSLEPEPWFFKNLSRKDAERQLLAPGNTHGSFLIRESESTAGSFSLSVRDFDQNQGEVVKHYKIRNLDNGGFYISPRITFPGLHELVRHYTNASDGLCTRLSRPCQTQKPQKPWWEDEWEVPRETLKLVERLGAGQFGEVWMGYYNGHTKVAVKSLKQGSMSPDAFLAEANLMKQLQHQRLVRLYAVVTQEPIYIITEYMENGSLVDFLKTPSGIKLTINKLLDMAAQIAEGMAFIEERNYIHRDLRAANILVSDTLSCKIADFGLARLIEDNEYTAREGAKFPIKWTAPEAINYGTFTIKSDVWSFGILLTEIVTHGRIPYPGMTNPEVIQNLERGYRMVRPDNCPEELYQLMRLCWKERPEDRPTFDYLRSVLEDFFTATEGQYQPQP
REPORTED PROPERTY: Ki

smiles_structure=CC(C)[C@@](C)(O)[C@@H]1CN(c2nc(-c3n[nH]c4ncccc34)c(F)cc2Cl)CCN1 system="Tyrosine-protein kinase Lck (Homo sapiens)" value_reported="> 1000 nM"
